The measured values listed here are drawn from ChEMBL document CHEMBL2384974.

# methodDescription: Metabolic stability in rat liver microsomes assessed as hepatic extraction ratio
# Type: ADME, Microsome
# experimentalParameters: read-out: ERH
Answer each item with its documented hepatic extraction ratio.
Answers are plain numbers.

Sample records with hepatic extraction ratio:
Cc1ccc(F)c(NC(=O)Nc2cccc(C(=O)c3cn(C4CCCC4)c4ncnc(N)c34)c2)c1 :: 0.8
Nc1ncnc2c1c(C(=O)c1cccc(NC(=O)Nc3c(F)cccc3F)c1)cn2C1CCCC1 :: 0.83
Nc1ncnc2c1c(C(=O)c1cccc(NC(=O)Nc3ccc(Cl)cc3)c1)cn2C1CCCC1 :: 0.7

I'm hoping you can list hepatic extraction ratio for every compound here, please.
1. CC(C)n1cc(C(=O)c2cccc(NC(=O)Nc3ccc(Cl)cc3)c2)c2c(N)ncnc21
2. Nc1ncnc2c1c(-c1nc3ccc(NS(=O)(=O)c4c(F)cccc4F)cc3[nH]1)cn2C1CCCC1
3. COc1ccc(C)cc1NC(=O)Nc1cccc(C(=O)c2cn(C3CCCC3)c3ncnc(N)c23)c1
4. Nc1ncnc2c1c(-c1nc3ccc(NC(=O)Nc4c(F)cccc4F)cc3[nH]1)cn2C1CCCC1

[0.52, 0.69, 0.69, 0.9]
